# method: pH solubility screen in Citric Acid / Dibasic Sodium Phosphate buffers
# Assay type: physicochemical
# testSettings: upper pH of range
readoutType: pH Range where Protein is >80% detected as Soluble and A650 <1 OD: High

• SEQID-00226: nutritive polypeptide (protein, listed as Bos taurus) QLQALQAQLTDTKKKVDDDLGTIENLEEAKKKLLKDVEVLSQRLEEKALAYDKLEKTKTRLQQELDDLLVDLDHQRQIVSNLEKKQKKFDQLLAEEKNIS = 9.1
• SEQID-00265: nutritive polypeptide (protein, listed as Bos taurus) SEGDRLRVELAEKANKLQNELDNVSTLLEEAEKKGIKFAKDAAGLESQLQDTQELLQEETRQKLNLSSRIRQLEEERSSLQEQQEEEEEARRSLEKQLQALQAQLTDTKKKVDDDLGTIENLEEAKKKLLKDVEVLSQRLEEKALAYDKLEKTKTRLQQELDDLLVDLDHQRQIVSNLEKKQKKFDQLLAEEKNISARYAEERDRAEAEAREKETKALSLARALEEALEAREEAERQNKQLRADMEDLMSSKDDVGKNVHELEKSKRALE = 9.1
• SEQID-00100: nutritive polypeptide (protein, listed as Lactobacillus acidophilus) MSEEEIFNKIKDLIADNFEVDKDSITENTNFMNDLDADSIDLVEFILQLEDEFGAEIPDDEAEKIKTVGDAVSYIKSHQG = 7.1
• SEQID-00485: nutritive polypeptide naturally produced in Chickpea, recombinantly expressed in E. coli (protein, listed as Cicer arietinum) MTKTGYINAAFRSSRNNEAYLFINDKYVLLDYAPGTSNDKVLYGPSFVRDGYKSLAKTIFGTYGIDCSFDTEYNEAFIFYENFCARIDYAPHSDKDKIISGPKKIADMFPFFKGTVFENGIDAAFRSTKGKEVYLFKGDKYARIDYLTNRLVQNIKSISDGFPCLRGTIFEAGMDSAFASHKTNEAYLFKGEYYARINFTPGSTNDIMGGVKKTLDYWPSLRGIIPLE = 7.1
